# Target Or Test System: human A2b adenosine receptor (Homo sapiens (Human))
# Sequence (P29275 whole entry): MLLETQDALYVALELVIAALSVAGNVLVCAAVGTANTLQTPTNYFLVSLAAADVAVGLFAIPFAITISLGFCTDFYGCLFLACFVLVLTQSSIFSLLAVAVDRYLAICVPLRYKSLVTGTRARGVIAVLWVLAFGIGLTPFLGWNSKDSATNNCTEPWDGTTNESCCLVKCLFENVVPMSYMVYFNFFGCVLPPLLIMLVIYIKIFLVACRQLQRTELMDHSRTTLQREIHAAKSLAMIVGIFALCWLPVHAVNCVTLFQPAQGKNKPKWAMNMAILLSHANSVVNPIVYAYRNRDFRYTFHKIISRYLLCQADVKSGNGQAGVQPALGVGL
# Experiment Summary: A2b radioligand filtration binding assay (tritiated proprietary A2b antagonist, HEK293 membranes)
# Measurement Context: unstarred values: radioligand binding
Catalogue of molecules with associated IC50
Quick note: give the figure in µM, leave out the unit.

// known answers, use as guide
- Molecule: "COc1ccc2c(c1)nc(N)n1nc([C@H]3C[C@H](C)CN(c4cnn(CC(C)(C)O)c4)C3)nc21 [Example 195C]"
  Uom: "µM"
  Recorded Number: 9.45
- Molecule: "COc1cccc2c1nc(N)n1nc([C@@H]3CCCN(c4cnn([C@@H]5CCNC5)c4)C3)nc21"
  Uom: "µM"
  Recorded Number: 0.351
- Molecule: "COc1ccc2c(c1)nc(N)n1nc([C@@H]3CCCN(c4cn([C@@H](C)C(C)(C)O)nc4C)C3)nc21 [Example 186B]"
  Uom: "µM"
  Recorded Number: 0.323

Qu. Fill blank: measured IC50 of the molecule COc1cccc2c1nc(N)n1nc([C@@H]3CCCN(c4ccc(C(C)C)nn4)C3)nc21 is ____.
Ans. 0.275

Qu. Also, COc1cccc2c1nc(N)n1nc(C3CN(c4cn(CC(C)(C)O)nc4C)CC(F)(F)C3)nc21 (single isomer, unassigned) [Example 158B] please.
Ans. 0.526

Qu. For Cn1cc(N2CCCC(c3nc4c5ccc(Cl)cc5nc(N)n4n3)C2)cn1 (single isomer, unassigned) then?
Ans. 0.152

Qu. How about this molecule: COc1ccc2c(c1)nc(N)n1nc([C@@H]3CCCN(c4ccc(C(C)=O)cc4)C3)nc21
Ans. 0.13

Qu. Continue with COc1ccc2c(c1)nc(N)n1nc([C@@H]3CCCN(c4cnn([C@H]5C[C@@](C)(O)C5)c4)C3)nc21
Ans. 0.188

Qu. Also COc1cccc2c1nc(N)n1nc([C@@H]3CCCN(c4cn(C)cn4)C3)nc21 ?
Ans. 1.78

Qu. Please do the same for COc1ccc2c(c1)nc(N)n1nc([C@@H]3CC[C@H](C)N(c4cnn(C5CCC[C@H]5O)c4)C3)nc21 (stereo partly drawn) [Example 210A] as well.
Ans. 0.0048
